measurement_protocol: NCI Yeast Anticancer Drug Screen. Data for the mlh1 rad18 strain (AID 175)
condition: S. cerevisiae mlh1 rad18 strain growth inhibition; at 50.0 µM
The panel holds about 79,000 compounds, 15% with a hit somewhere; the sample as a whole holds those more often. The source made the active and inactive calls. No stated cut-off is given here; in the data, active means growth inhibition above about 70%; inactive means the rest.
Outcome field: choose from yes = active, no = inactive

compound	label_class
CC(=O)CC(c1ccccc1)c1c(O)c2ccccc2oc1=O (stereo unspecified)	no
CCOC(=O)C(Cc1c2ccccc2cc2ccccc12)(NC(C)=O)C(=O)OCC	yes
CC1=COC2=C(C)C(=O)C(=O)c3c(C)ccc1c32	yes
C[n+]1c(/C=C/c2ccc(/C=N/NC(=O)c3ccc(C(=O)N/N=C/c4ccc(/C=C/c5cn6ccccc6[n+]5C)cc4)cc3)cc2)cn2ccccc21	yes
CC(C)(CN1CCCCC1)C(=O)/C=C/c1c(Cl)cccc1Cl	yes

Continue with the next compound.
In this assay, the call recorded for O=C1/C(=C/c2ccc(Cl)c(Cl)c2)CNC/C1=C\c1ccc(Cl)c(Cl)c1 was what?
yes
